These entries and their values trace back to ChEMBL document CHEMBL1136787.

- Study Target: Human immunodeficiency virus type 1 protease (Human immunodeficiency virus 1)
- Measurement Protocol: Inhibitory activity against HIV-1 protease mutant was determined
Here the recorded pIC50 is given for each entry.
To interpret pIC50, take it as minus log10 of a concentration measured in moles per litre.

Compound	Recorded Metric	Test Result
NC(=O)O[C@@H]1Cc2ccccc2C1C1=C(O)[C@](Cc2ccccc2)(C[C@H](O)[C@H](Cc2ccccc2)NC(=O)O[C@H]2CCOC2)N=C1 (single isomer, unassigned; (-))	pIC50	6.44

Continue with the next compound.
What value of pIC50 on Human immunodeficiency virus type 1 protease (Human immunodeficiency virus 1) does O=C(N[C@@H](Cc1ccccc1)[C@@H](O)C[C@]1(Cc2ccccc2)N=CC(C2c3ccccc3C[C@H]2O)=C1O)O[C@H]1CCOC1 (single isomer, unassigned; (-)) have?
6.89
